src = paper doi:10.1101/2025.07.01.662521

experimentalTarget: T1, Human Glucose-induced degradation protein 4 homolog (GID4), residues 116-300, N-terminally Avi-tagged, … (human, UniProt Q8IVV7 116-300, biotin (BirA, on the AVI tag))
T1 construct: Glucose-induced degradation protein 4 homolog (GID4), human, UniProt Q8IVV7, residues 116-300; Construct: N-terminal Strep-SUMO-3C-6xHis-AVI-tag; cleaved with HRV-3C protease, which by the printed order of the tags should leave 6xHis-AVI on the protein; also called hGID4; biotinylated GID4; source: E. coli BL21(DE3), purified (Streptactin XT, HRV-3C cleavage, BirA biotinylation, SEC); not shown: …
T1 sequence (looked up): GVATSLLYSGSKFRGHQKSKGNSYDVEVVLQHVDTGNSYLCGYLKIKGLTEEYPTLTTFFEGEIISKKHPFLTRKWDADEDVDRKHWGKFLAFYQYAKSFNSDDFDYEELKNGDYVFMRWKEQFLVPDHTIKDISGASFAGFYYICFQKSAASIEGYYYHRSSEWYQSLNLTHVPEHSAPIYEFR
methodNotes: SPR; biotinylated GID4 (116-300) captured on an SA chip (about 2500 RU), Biacore 8K; peptide flowed over; PBS pH 7.4, 0.05% P-20, 1 mM DTT, 1% DMSO
conditionLabel: both partners purified
valueType: pKd
Would you please state pKd, meaning minus log10 of the concentration in mol/L, as a bare number?

Quick check: pKd of PGLWKS (Pro/N-degron peptide; also called endogenous degron peptide; PGLWKS degron peptide) [degron peptide PGLWKS] ?
5.67
